System: human embryonic kidney 293 (HEK293) cells
Assay: Toxicity of Nucleoside Triphosphates (NTPs), CYTO TOX-GLO assay
Assay type: cell-based
Conditions: human, 48 h, 21 nM
Method: The cytotoxicity of natural and modified nucleoside triphosphates (NTPs) alone or in combination with other bases, was analyzed in human embryonic kidney 293 (HEK293) cells in the absence of transfection reagent. […] 10 ul of the NTPs outlined in Table 12 were combined with 10 ul of lipid dilution and incubated for 30 minutes to form a complex before 80 ul of the HEK293 cell suspension was added to the NTP complex. […]
Below: a set of entries, each annotated with reported percent of viable cells.
Numbers only; they are read as %.

Guide cases for percent of viable cells, answers given:
O=c1cc[nH]c(=O)[nH]1: 88.89
Nc1ncnc2nc[nH]c12: 91.13
Nc1nc2nc[nH]c2c(=O)[nH]1: 87.92
Nc1cc[nH]c(=O)n1: 88.95

We now examine a further molecule.
Prompt line: Checklist item: percent of viable cells tested on human embryonic kidney 293 (HEK293) cells, entry `Cc1c[nH]c(=O)nc1N` , value?
Response line: 87.10

----------
system: human embryonic kidney 293 (HEK293) cells; test: Toxicity of Nucleoside Triphosphates (NTPs), CYTO TOX-GLO assay; format: cell-based; conditions: human, 72 h, 2.1 nM
assay.metric: percent of viable cells (%)
Numbers only; they are read as %.

Prompt line: Fill in the blank: the reported percent of viable cells of `Nc1nc2nc[nH]c2c(=O)[nH]1` is ____.
Response line: 93.72

Prompt line: Fill in the blank: the reported percent of viable cells of `Nc1ncnc2nc[nH]c12` is ____.
Response line: 95.74

Prompt line: Fill in the blank: the reported percent of viable cells of `Nc1cc[nH]c(=O)n1` is ____.
Response line: 94.22

Prompt line: Fill in the blank: the reported percent of viable cells of `O=c1cc[nH]c(=O)[nH]1` is ____.
Response line: 95.51

Prompt line: Fill in the blank: the reported percent of viable cells of `Cc1c[nH]c(=O)nc1N` is ____.
Response line: 91.93

----------
test system: human embryonic kidney 293 (HEK293) cells; test: Toxicity of Nucleoside Triphosphates (NTPs), CYTO TOX-GLO assay; type: cell-based; conditions: human, 72 h, 210 uM
Below: a set of entries, each annotated with reported percent of viable cells.
Numbers only; they are read as %.

Guide cases for percent of viable cells, answers given:
Nc1nc2nc[nH]c2c(=O)[nH]1: 91.41
Cc1c[nH]c(=O)nc1N: 88.10
O=c1cc[nH]c(=O)[nH]1: 93.45
Nc1ncnc2nc[nH]c12: 94.81

We now examine a further compound.
Prompt line: Checklist item: percent of viable cells tested on human embryonic kidney 293 (HEK293) cells, entry `Nc1cc[nH]c(=O)n1` , value?
Response line: 92.34

----------
Below: a set of entries, each annotated with reported percent of viable cells.
tested on: human embryonic kidney 293 (HEK293) cells; assay: Toxicity of Nucleoside Triphosphates (NTPs), CYTO TOX-GLO assay; type: cell-based; details: human, 24 h, 2.1 mM
Numbers only; they are read as %.

Guide cases for percent of viable cells, answers given:
Nc1nc2nc[nH]c2c(=O)[nH]1 [Guanine]: 86.37
Nc1ncnc2nc[nH]c12 [Adenine]: 88.42
O=c1cc[nH]c(=O)[nH]1 [Uracil]: 87.68
Cc1c[nH]c(=O)nc1N [5-methyl cytosine]: 87.97

We now examine a further compound.
Prompt line: Fill in the blank: the reported percent of viable cells of Nc1cc[nH]c(=O)n1 [Cytosine] is ____.
Response line: 86.92
